TARGET UNDER TEST: FGFR2 on SNU16 cells (FGFR2 amplification) (human (endogenous in SNU16), UniProt P21802 22-821)
Sequence (P21802 22-821): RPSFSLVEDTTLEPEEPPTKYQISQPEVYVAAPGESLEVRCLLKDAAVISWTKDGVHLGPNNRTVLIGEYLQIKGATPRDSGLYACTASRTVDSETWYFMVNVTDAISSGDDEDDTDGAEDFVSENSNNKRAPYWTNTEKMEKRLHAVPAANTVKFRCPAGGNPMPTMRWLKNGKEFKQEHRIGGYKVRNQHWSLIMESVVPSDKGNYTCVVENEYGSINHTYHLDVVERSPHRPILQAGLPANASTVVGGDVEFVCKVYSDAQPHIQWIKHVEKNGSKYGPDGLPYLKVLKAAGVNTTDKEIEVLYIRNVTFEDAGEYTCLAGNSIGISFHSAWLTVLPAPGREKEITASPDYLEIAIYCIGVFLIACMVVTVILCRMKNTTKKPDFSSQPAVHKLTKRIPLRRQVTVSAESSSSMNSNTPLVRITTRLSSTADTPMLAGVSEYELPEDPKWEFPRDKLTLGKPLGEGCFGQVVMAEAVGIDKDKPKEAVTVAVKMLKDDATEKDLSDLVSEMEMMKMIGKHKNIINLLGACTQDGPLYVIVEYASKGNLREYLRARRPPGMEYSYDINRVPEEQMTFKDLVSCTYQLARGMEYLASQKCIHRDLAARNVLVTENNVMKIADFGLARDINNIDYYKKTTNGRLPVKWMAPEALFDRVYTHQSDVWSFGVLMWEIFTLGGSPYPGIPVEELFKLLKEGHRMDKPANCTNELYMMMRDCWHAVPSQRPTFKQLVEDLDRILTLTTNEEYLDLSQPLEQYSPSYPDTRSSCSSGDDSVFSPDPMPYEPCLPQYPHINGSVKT
PROCEDURE SUMMARY: FACS; apparent Kd, SNU16 cells
RECORDED METRIC: pKd
By convention, pKd is the negative base-10 log of a molar concentration.

Below, 4 binders whose answers are already recorded.
BINDER	pKd
FGFR2 parental antibody F (antibody, V domains shown) VH: QVQLVQSGAEVKKPGESLKISCKGSGYSFTNYYIHWVRQMPGKGLEWMGAIYPDNSDTTYSPSFQGQVTISADKSISTAYLQWSSLKASDTAMYYCARGADIWGQGTLVTVSS VL: DIQMTQSPSSLSASVGDRVTITCRASQDIDPYLSNWYQQKPGKAPKLLIYDASNLQSGVPSRFSGSGSGTDFTLTISSLQPEDFATYYCQQTTSHPYTFGQGTKVEIK	8.03
FGFR2 parental antibody D (antibody, V domains shown) VH: EVQLVESGGGLVQPGGSLRLSCAASGFPFTSTGISWVRQAPGKGLEWVGRTHLGDGSTNYADSVKGRFTISADTSKNTAYLQMNSLRAEDTAVYYCARTYGIYDTYDMYTEYVMDYWGQGTLVTVSS VL: DIQMTQSPSSLSASVGDRVTITCRASQDVDTSLAWYKQKPGKAPKLLIYSASFLYSGVPSRFSGSGSGTDFTLTISSLQPEDFATYYCQQSTGHPQTFGQGTKVEIK	8.70
FGFR2 parental antibody E (antibody, V domains shown) VH: QVQLVQSGAEVKKPGSSVKVSCKASGYIFTTYNVHWVRQAPGQGLEWIGSIYPDNGDTSYNQNFKGRATITADKSTSTAYMELSSLRSEDTAVYYCARGDFAYWGQGTLVTVSS VL: DIQMTQSPSSLSASVGDRVTITCKASQGVSNDYAWYQQKPGKAPKLLIYSASYRYTGVPSRFSGSGSGTDFTFTISSLQPEDIATYYCQQHSTTPYTFGQGTKLEIK	8.75
FGFR2 parental antibody A (antibody, V domains shown) VH: EVQLLESGGGLVQPGGSLRLSCAASGFTFSSYAMSWVRQAPGKGLEWVSAISGSGTSTYYADSVKGRFTISRDNSKNTLYLQMNSLRAEDTAVYYCARVRYNWNHGDWFDPWGQGTLVTVSS VL: QSVLTQPPSASGTPGQRVTISCSGSSSNIGNNYVSWYQQLPGTAPKLLIYENYNRPAGVPDRFSGSKSGTSASLAISGLRSEDEADYYCSSWDDSLNYWVFGGGTKLTVL	9.12

Below: the item to evaluate.
q: Name the recorded pKd of the binder listed here: FGFR2 parental antibody C (antibody, V domains shown) VH: QVQLVESGGGLVKPGGSLRLSCAASGFTFSSYALSWVRQAPGKGLEWVGRIRSKIDGGTTDYAAPVKGRFTISRDDSKNTLYLQMNSLKTEDTAVYYCARDRSPSDSSAFAIWGQGTLVTVSS VL: DIELTQPPSVSVSPGQTASITCSGDNLGSQYVDWYQQKPGQAPVLVIYDDNDRPSGIPERFSGSNSGNTATLTISGTQAEDEADYYCQSWDSLSVVFGGGTKLTVL
a: 9.82
